GI50 listing for selected molecules.
Tested on: MDA-MB-468 breast
Experiment: NCI tumour cell line growth inhibition, 48 h

MOLECULE: O=C(N/N=C\c1ccc(F)cc1)c1ccc2nc(-c3ccc(Br)cc3)[nH]c2c1
GI50: 1980 nM
//
MOLECULE: Fc1ccc(Oc2nccc(-c3c(-c4ccc(F)cc4)ncn3C3CCNCC3)n2)cc1
GI50: 4700 nM
//
MOLECULE: COc1ccc(/C=C2\CN(C(=O)C(Cl)Cl)C/C(=C\c3ccc(OC)c(OC)c3)C2=O)cc1OC
GI50: 224 nM
//
MOLECULE: CCCCCCCCCNCCCCCCCCC
GI50: 1770 nM
//
MOLECULE: C/C=C(\C)C(=O)N[C@H]1[C@@H](OC(C)=O)C[C@]2(C)C3CC[C@@]4(C)C(CC[C@@H]4C(C)N(C)C)C3CCC2[C@H]1O (some centres undefined)
GI50: 2020 nM
//
MOLECULE: CCCCCCCCCCC(C[N+](C)(C)C/C=C/c1ccccc1)C(O)c1ccccc1 (centres undefined)
GI50: 1370 nM
//
MOLECULE: Nc1nc(Nc2ccc3c(c2)CC[C@@H](N2CCCC2)CC3)nn1-c1cc2c(nn1)-c1ccccc1CCC2
GI50: 1750 nM
//
MOLECULE: CCC(C)(C)c1ccc(OCCCCN2CCN(c3ccncc3)CC2)cc1
GI50: 2270 nM
//
MOLECULE: CC(=O)Nc1cccc(-n2cnc3cc(-c4ccc(O)cc4)ccc32)c1
GI50: 259 nM

====

Measured log10(TGI), listed per entry for reference.
Tested on: MDA-MB-468 breast
Experiment: NCI tumour cell line growth inhibition, 48 h
EXPERIMENTAL_READOUT: log10(TGI) (log10 of the value in µM)

SUBSTANCE_SMILES: COc1ccc2c(c1)nc(N)c1c3cc(OC)c(OC)cc3cn21
MEASUREMENT_TARGET: MDA-MB-468 breast
REPORTED_RESULT: 1.10
//
SUBSTANCE_SMILES: C=C1CC[C@@]2(C#N)[C@H]3[C@H](CC[C@@H]2C)[C@@H](C)C[C@@H](CC(C)(C)C#N)[C@H]13
MEASUREMENT_TARGET: MDA-MB-468 breast
REPORTED_RESULT: 1.41
//
SUBSTANCE_SMILES: O=C(NC1CC1)c1ccc(-c2nc3ccc4[nH]ncc4c3c3c2CCCC3)cc1
MEASUREMENT_TARGET: MDA-MB-468 breast
REPORTED_RESULT: 0.85
//
SUBSTANCE_SMILES: CCN(CC)CCOc1ccc(Nc2ncc3cc(-c4ccc(O)cc4)c(=O)n(C)c3n2)cc1
MEASUREMENT_TARGET: MDA-MB-468 breast
REPORTED_RESULT: 1.38
//
SUBSTANCE_SMILES: COc1ccc(/C=C2\CN(C(=O)C(Cl)Cl)C/C(=C\c3ccc(OC)c(OC)c3)C2=O)cc1OC
MEASUREMENT_TARGET: MDA-MB-468 breast
REPORTED_RESULT: -0.21
//
SUBSTANCE_SMILES: c1ccc(C(=NNc2nc3ccccc3o2)c2ccccn2)nc1
MEASUREMENT_TARGET: MDA-MB-468 breast
REPORTED_RESULT: -0.71
